A collection of compounds and their measured MIC
test system: Staphylococcus aureus; test: microbe, parasite or virus in culture; type: functional; settings: ATCC 49951, 24 h
Respond numerically; units are µg/mL and should not be typed.

Below, each entry is followed by its recorded MIC result.
Missing value: MIC, Staphylococcus aureus, entry CCC[C@@H]1C[C@@H](C(=O)N[C@@H]([C@H]2O[C@H](SC)[C@H](O)[C@@H](O)[C@H]2O)[C@H](C)Cl)N(C)C1.Cl [CLINDAMYCIN HYDROCHLORIDE] . Fill in?
0.063

Missing value: MIC, Staphylococcus aureus, entry CC[C@H]1OC(=O)[C@H](C)[C@@H](O[C@H]2C[C@@](C)(OC)[C@@H](O)[C@H](C)O2)[C@H](C)[C@@H](O[C@@H]2O[C@H](C)C[C@H](N(C)C)[C@H]2O)[C@](C)(O)C[C@@H](C)C(=O)[C@H](C)[C@@H](O)[C@]1(C)O [ERYTHROMYCIN] . Fill in?
0.25

Further cases:
Missing value: MIC, Staphylococcus aureus, entry "CC(C)(C)c1ccc(-c2ccnc(CNC(=N)N)c2)cc1" . Fill in?
8

Missing value: MIC, Staphylococcus aureus, entry "CC(C)(C)c1ccc(-c2cc(CNC(=N)N)ncn2)cc1" . Fill in?
32

Missing value: MIC, Staphylococcus aureus, entry Cc1onc(-c2ccccc2Cl)c1C(=O)N[C@@H]1C(=O)N2[C@@H]1SC(C)(C)[C@@H]2C(=O)[O-].[Na+] [OXACILLIN SODIUM SALT] . Fill in?
0.25

---

target: Cell division protein FtsZ (Staphylococcus aureus, UniProt P0A031, I228R); assay: Binding affinity to Staphylococcus aureus FtsZ I228R mutant expressed in Escherichia coli BL21 (DE3) at 25 degC by fluorescence anisotropy assay
REPORTED_ENDPOINT: pKd
Lab note — pKd values are minus log10 of concentrations in M.

I have this compound here, "CC(C)(C)c1ccc(-c2cccc(CNC(=N)N)c2)cc1" , and I need its recorded pKd.
4.48

---

experiment: Binding affinity to Enterococcus faecalis FtsZ at 25 degC by fluorescence anisotropy assay; details: read-out: Kd
REPORTED_ENDPOINT: Kd (µM)
Respond numerically; units are µM and should not be typed.

I have this molecule here, "CC(C)(C)c1ccc(-c2cccc(CNC(=N)N)c2)cc1" , and I need its recorded Kd.
21.8

---

system: Staphylococcus aureus; assay: microbe, parasite or virus in culture; assay type: functional; details: ATCC 33591, 24 h
A collection of compounds and their measured MIC
Respond numerically; units are µg/mL and should not be typed.

Below, each entry is followed by its recorded MIC result.
Missing value: MIC, Staphylococcus aureus, entry "CC(C)(C)c1ccc(-c2cccc(CNC(=N)N)c2)cc1" . Fill in?
1

Missing value: MIC, Staphylococcus aureus, entry "CC(C)(C)c1ccc(-c2cc(CNC(=N)N)ncn2)cc1" . Fill in?
64

Please find the next compound below.
Missing value: MIC, Staphylococcus aureus, entry "CC(C)(C)c1ccc(-c2ccnc(CNC(=N)N)c2)cc1" . Fill in?
16

---

molecular target: Cell division protein FtsZ (Staphylococcus aureus, UniProt P0A031, E185A); assay: Binding affinity to Staphylococcus aureus FtsZ E185A mutant expressed in Escherichia coli BL21 (DE3) at 25 degC by fluorescence anisotropy assay
REPORTED_ENDPOINT: Kd (µM)
Respond numerically; units are µM and should not be typed.

I have this compound here, "CC(C)(C)c1ccc(-c2cccc(CNC(=N)N)c2)cc1" , and I need its recorded Kd.
38.3
